Below, each of the compounds is paired with its reported inhibition at 0.1 µM value.
target: androgen receptor (AR) (Homo sapiens, UniProt P10275); experiment: Degradation of androgen receptor (AR) protein in VCaP cells by Western blot; assay type: cell-based; details: percentage of degraded AR at 100 nM, VCaP cells, 16 h
Sequence (P10275 whole entry): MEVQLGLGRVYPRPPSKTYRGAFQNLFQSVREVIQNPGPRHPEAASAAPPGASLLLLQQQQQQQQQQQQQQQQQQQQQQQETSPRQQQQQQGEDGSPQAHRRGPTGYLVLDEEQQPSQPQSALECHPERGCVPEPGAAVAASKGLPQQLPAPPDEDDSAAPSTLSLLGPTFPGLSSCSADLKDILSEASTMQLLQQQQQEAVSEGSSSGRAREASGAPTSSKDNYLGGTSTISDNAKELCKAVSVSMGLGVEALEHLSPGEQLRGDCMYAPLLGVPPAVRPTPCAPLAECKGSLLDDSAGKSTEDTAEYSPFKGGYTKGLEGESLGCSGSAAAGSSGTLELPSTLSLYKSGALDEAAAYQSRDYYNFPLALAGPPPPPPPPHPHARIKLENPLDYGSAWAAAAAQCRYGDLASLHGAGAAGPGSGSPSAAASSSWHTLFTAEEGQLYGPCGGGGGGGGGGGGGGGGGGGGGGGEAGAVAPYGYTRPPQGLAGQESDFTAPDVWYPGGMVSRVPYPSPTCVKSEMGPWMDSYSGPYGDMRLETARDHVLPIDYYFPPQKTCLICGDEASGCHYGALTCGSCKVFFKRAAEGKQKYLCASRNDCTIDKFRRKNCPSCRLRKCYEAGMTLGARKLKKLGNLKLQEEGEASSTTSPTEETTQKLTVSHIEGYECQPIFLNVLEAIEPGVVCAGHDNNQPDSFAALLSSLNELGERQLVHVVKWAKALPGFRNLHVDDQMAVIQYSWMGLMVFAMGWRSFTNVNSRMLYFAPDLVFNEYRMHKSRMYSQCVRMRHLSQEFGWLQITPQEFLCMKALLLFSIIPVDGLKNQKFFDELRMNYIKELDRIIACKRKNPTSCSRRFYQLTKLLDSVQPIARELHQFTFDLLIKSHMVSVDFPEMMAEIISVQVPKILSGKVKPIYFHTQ
readout kind: inhibition at 0.1 µM

1) N#Cc1ccc(O[C@H]2CC[C@H](NC(=O)c3cnc(N4CCC(N5CCC6(CCN(c7cc8c(cc7F)C(=O)N(C7CCC(=O)NC7=O)C8=O)C6)C5)CC4)cn3)CC2)cc1Cl (stereo partly shown) [Compound 165] ... > 80%
2) N#Cc1ccc(O[C@H]2CC[C@H](NC(=O)c3ccc(N4C[C@H]5C[C@@H](CN6CCN(c7cc8c(cc7F)C(=O)N(C7CCC(=O)NC7=O)C8=O)CC6)C[C@H]5C4)nn3)CC2)cc1Cl (stereo partly shown) [Compound 224] ... 50 to 79%
3) N#Cc1ccc(O[C@H]2CC[C@H](NC(=O)c3ccc(N4CCC(N5CC6(CCN(c7cc8c(cc7F)C(=O)N(C7CCC(=O)NC7=O)C8=O)C6)C5)CC4)nn3)CC2)cc1Cl (stereo partly shown) [Compound 103] ... > 80%
4) N#Cc1ccc(O[C@H]2CC[C@H](NC(=O)c3ccc(N4CC5(CCN(CC6CCN(c7cc8c(cc7F)C(=O)N(C7CCC(=O)NC7=O)C8=O)CC6)CC5)C4)nn3)CC2)cc1Cl (stereo partly shown) [Compound 232] ... > 80%
5) N#Cc1ccc(O[C@H]2CC[C@H](NC(=O)c3ccc(N4CC(CN5CC6CN(c7cc8c(cc7F)C(=O)N(C7CCC(=O)NC7=O)C8=O)CC6C5)C4)nn3)CC2)cc1Cl (stereo partly shown) [Compound 137] ... 50 to 79%
6) N#Cc1ccc(O[C@H]2CC[C@H](N3Cc4nc(NC5CCN(CC6CCN(c7ccc8c(c7)C(=O)N(C7CCC(=O)NC7=O)C8=O)CC6)CC5)ccc4C3=O)CC2)cc1Cl (stereo partly shown) [Compound 172] ... < 25%
7) N#Cc1ccc(O[C@H]2CC[C@H](NC(=O)c3ccc(N4CCC(N5CC6CN(c7ccc8c(c7)C(=O)N(C7CCC(=O)NC7=O)C8=O)CC6C5)CC4)nn3)CC2)cc1Cl (stereo partly shown) [Compound 62] ... 50 to 79%
8) N#Cc1ccc(O[C@H]2CC[C@H](NC(=O)c3ccc(N4CCC(CN5CC6(CCN(c7cc8c(cc7F)C(=O)N(C7CCC(=O)NC7=O)C8=O)C6)C5)CC4)nn3)CC2)cc1Cl (stereo partly shown) [Compound 180] ... > 80%
9) CN(C1CCN(c2cc3c(cc2F)C(=O)N(C2CCC(=O)NC2=O)C3=O)CC1)C1CC(C#Cc2ccc3c(n2)CN([C@H]2C(C)(C)[C@H](Oc4ccc(C#N)c(Cl)c4)C2(C)C)C3=O)C1 (stereo partly shown) [Compound 332] ... 50 to 79%
10) N#Cc1ccc(O[C@H]2CC[C@H](NC(=O)c3ccc(N4CC5CN(CC6CCN(c7ccc8c(c7)C(=O)N(C7CCC(=O)NC7=O)C8=O)CC6)CC5C4)nn3)CC2)cc1Cl (stereo partly shown) [Compound 260] ... > 80%
